Target: human CD3E&G complex (Sino Biological Inc., CT041-H0305H) (human) (UniProt P07766)
Sequence (P07766 23-126, chain 1 of 2): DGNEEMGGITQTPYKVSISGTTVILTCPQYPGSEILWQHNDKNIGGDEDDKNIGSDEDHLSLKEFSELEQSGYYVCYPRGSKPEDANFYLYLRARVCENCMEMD
Sequence (P09693 23-116, chain 2 of 2, further chain): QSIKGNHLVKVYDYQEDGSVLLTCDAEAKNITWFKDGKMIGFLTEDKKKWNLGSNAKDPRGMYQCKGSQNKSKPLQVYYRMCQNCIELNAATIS
Assay: SPR, antigen on chip
Let's look at some binders and their measured kon.
Answer in M⁻¹ s⁻¹, number only, no unit symbol.

binder="SGN70-sp34.97LH (bispecific antibody, part only; not given: anti-CD70 Fab arm and Fc, not shown: another chain or arm of the molecule; a dimerising Fc or GST) scFv: QAVVTQEPSLTVSPGGTVTLTCRSSTGAVTTSNYANWVQQKPGQAPRGLIGGTNKRAPGVPARFSGSLLGDKAALTLLGAQPEDEAEYYCALWYSNLWVFGQGTKLTVLGGGGSGGGGSGGGGSGGGGSEVQLVESGGGLVQPGGSLKLSCAASGFTFNTYAMNWVRQASGKGLEWVGRIRSKAGGYATYYADSVKDRFTISRDDSKSTLYLQMNSLKTEDTAVYYCARHGNFGQSYVSWFAYWGQGTTVTVSS" measuredquantity=kon testresult=81300
binder="SGN70-sp34.87HL (bispecific antibody, part only; not given: anti-CD70 Fab arm and Fc, not shown: another chain or arm of the molecule; a dimerising Fc or GST) scFv: EVQLVESGGGLVQPGGSLKLSCAASGFTFNTYAMNWVRQASGKGLEWVGRIRSKYNNYATYYADSVKDRFTISRDDSKSTLYLQMNSLKTEDTAVYYCARHYNFGQSYVSWFAYWGQGTTVTVSSGGGGSGGGGSGGGGSGGGGSQAVVTQEPSLTVSPGGTVTLTCRSSTGAVTTSNYANWVQQKPGQAPRGLIGGTNKRAPGVPARFSGSLLGDKAALTLLGAQPEDEAEYYCALWYSNLWVFGQGTKLTVL" measuredquantity=kon testresult=504000

Now for another entry.
Provide measured kon value, entry: SGN70-sp34.87LH (bispecific antibody, part only; not given: anti-CD70 Fab arm and Fc, not shown: another chain or arm of the molecule; a dimerising Fc or GST) scFv: QAVVTQEPSLTVSPGGTVTLTCRSSTGAVTTSNYANWVQQKPGQAPRGLIGGTNKRAPGVPARFSGSLLGDKAALTLLGAQPEDEAEYYCALWYSNLWVFGQGTKLTVLGGGGSGGGGSGGGGSGGGGSEVQLVESGGGLVQPGGSLKLSCAASGFTFNTYAMNWVRQASGKGLEWVGRIRSKYNNYATYYADSVKDRFTISRDDSKSTLYLQMNSLKTEDTAVYYCARHYNFGQSYVSWFAYWGQGTTVTVSS
321000

Origin of measurements: patent US20230374132A1
